Data origin: paper PMC5540273

System: MEK5;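 note: kd values determined as follow-up on hits from a single-replicate KINOMEscan panel screen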
Construct: gene MAP2K5

{"columns": ["structure notation", "Kd [nM]"],
 "data": [
  ["Fc1cc(Cl)ccc1Nc1ccnc2cc(-c3ccc(CN4CCCCC4)o3)ccc12", 890],
  ["Cc1ccc(C(=O)Nc2ccc(Nc3ccnc4cc(-c5ccccn5)ccc34)cc2O)cc1.Cl", 4.7],
  ["COc1cc2ncnc(Nc3ccc4nc(-c5ccccc5)[nH]c4c3)c2cc1OC.Cl", 670],
  ["COc1cc2nccc(Nc3ccc(NC(=O)c4ccc(C)cc4)c(O)c3)c2cc1OC.Cl", 8.7]
]}

---

System: IKK-beta
Construct: gene IKBKB
condition set: concentration: 1 μM, replicates: in singlicate; n = 1
value kind: %Inh (%)

{"columns": ["molecule", "value kind", "result units", "recorded value"],
 "data": [
  ["COc1ccccc1-c1ccc2c(NC(=O)C3CC3)n[nH]c2n1 [SB-711239]", "%Inh", "%", 0],
  ["CS(=O)(=O)c1ccc(-c2nc3n(c2-c2ccncc2)CCC3)cc1 [SKF-105942]", "%Inh", "%", 0],
  ["O=C(Nc1n[nH]c2cc(-c3cccc(F)c3F)ccc12)C1CC1 [SB-733894]", "%Inh", "%", 5],
  ["Nc1ncnc2[nH]c(-c3ccccc3)nc12 [AH5015]", "%Inh", "%", 55],
  ["Cl.NC(=O)c1cccc(Nc2nccc(Nc3ccc(Oc4cccc(Cl)c4)c(Cl)c3)n2)c1 [GW659008]", "%Inh", "%", 5],
  ["Cc1cccc(-c2nc(Nc3ccc4[nH]ncc4c3)c3ccccc3n2)n1 [GW857175]", "%Inh", "%", 17],
  ["COc1cc(Nc2nccc(N3CCC(NC(=O)Nc4cc(C)ccc4C)C3)n2)cc(OC)c1OC (stereo not shown) [GSK1379762]", "%Inh", "%", 17]
]}

---

Reported %Inh values for a set of compounds
Test system: CSNK1A1
condition set: concentration: 1 μM, replicates: in singlicate; n = 1

{"columns": ["compound", "system under test", "%Inh (%)"],
 "data": [
  ["CS(=O)(=O)c1ccc(-c2nc3n(c2-c2ccncc2)CCC3)cc1 [SKF-105942]", "CSNK1A1", 0],
  ["COc1cccc(-c2cc(-c3c[nH]nc3-c3ccccn3)ccn2)c1 [GW680338]", "CSNK1A1", 31],
  ["CSc1nn2c(=O)cc(N3CCOCC3)nc2n1Cc1cccc(C(F)(F)F)c1C [GSK2363608]", "CSNK1A1", 0],
  ["Nc1nc(-c2nccs2)c(-c2ccnc3ccccc23)s1 [GW693542]", "CSNK1A1", 40],
  ["Cc1ccccc1-n1cnc2c(N)ncnc21 [SKF-97510]", "CSNK1A1", 0],
  ["COc1cccc(NC(=O)NC2CCN(c3ccnc(Nc4ccc(F)cc4)n3)C2)c1 (stereo not shown) [GSK1379721]", "CSNK1A1", 0],
  ["Cc1cccc(-c2nc(Nc3ccncc3)c3ccccc3n2)n1 [GW855857]", "CSNK1A1", 46],
  ["Cc1ccc(NC(=O)Nc2cc(C(C)(C)C)nn2-c2ccccc2)cc1 [GSK1014915]", "CSNK1A1", 0],
  ["COC(=O)c1c(-c2ccccc2)c2cc(OC)ccc2c(=O)n1Cc1ccccc1", "CSNK1A1", 9],
  ["Nc1ncnc2[nH]c(-c3ccccc3)nc12 [AH5015]", "CSNK1A1", 0],
  ["Cc1cccc(-c2nc(Nc3ccc4[nH]ncc4c3)c3ccccc3n2)n1 [GW857175]", "CSNK1A1", 0],
  ["O=C(O)COc1ncnc2cc(-c3ccc4[nH]ncc4c3)sc12", "CSNK1A1", 33],
  ["COC(=O)c1c(-c2ccccc2)c2cc(C(=O)O)ccc2c(=O)n1Cc1ccccc1", "CSNK1A1", 0]
]}

---

System: CAMKK2
condition set: concentration: 1 μM, replicates: in singlicate; n = 1
Reported %Inh values for a set of molecules

{"columns": ["molecule", "system under test", "result units", "%Inh"],
 "data": [
  ["Cc1cccc(-c2cc(Nc3ccncc3)c3ccccc3n2)n1", "CAMKK2", "%", 20],
  ["Cc1nnc(-c2ccc3occ(-c4ccc(S(C)=O)cc4)c3c2)[nH]1 (stereo not shown)", "CAMKK2", "%", 14],
  ["Cc1csc(-c2nc(Nc3ccncc3)c3ccccc3n2)n1", "CAMKK2", "%", 23],
  ["Fc1cc(Cl)ccc1Nc1ccnc2cc(I)ccc12", "CAMKK2", "%", 0],
  ["CC1=C(C(=O)Nc2cc3cn[nH]c3cc2F)C(c2ccc(C(F)(F)F)cc2)CC(=O)N1 (stereo not shown)", "CAMKK2", "%", 14],
  ["COC(=O)c1c(-c2ccccc2)c2cc(C(=O)O)ccc2c(=O)n1Cc1ccccc1", "CAMKK2", "%", 0],
  ["Cl.NC(=O)c1cccc(Nc2nccc(Nc3ccc(Oc4cccc(Cl)c4)c(Cl)c3)n2)c1", "CAMKK2", "%", 0],
  ["COc1cc(Nc2nccc(N3CCC(NC(=O)Nc4cc(C)ccc4C)C3)n2)cc(OC)c1OC (stereo not shown)", "CAMKK2", "%", 0],
  ["Cc1ccc(-c2cc(-c3c[nH]nc3-c3ccccn3)ccn2)cc1", "CAMKK2", "%", 26],
  ["CC(C)(C)c1ccc(C(=O)Nc2cn3cc(Cl)ccc3n2)cc1", "CAMKK2", "%", 14],
  ["Cc1ccc(NC(=O)Nc2cc(C(C)(C)C)nn2-c2ccccc2)cc1", "CAMKK2", "%", 0],
  ["Cc1cccc(-c2nc(C)cc(Nc3ccncc3)n2)n1", "CAMKK2", "%", 12],
  ["O=S(=O)(c1ccc(-c2ccnc3[nH]ccc23)cc1)N1CCCC1", "CAMKK2", "%", 23],
  ["COc1cccc(-c2cc(-c3c[nH]nc3-c3ccccn3)ccn2)c1", "CAMKK2", "%", 9],
  ["CCCc1ccc(S(=O)(=O)NC2CCN(c3ccnc(Nc4ccc(F)cc4)n3)C2)cc1 (stereo not shown)", "CAMKK2", "%", 0],
  ["Nc1ncnc2[nH]c(-c3ccccc3)nc12", "CAMKK2", "%", 0],
  ["Clc1cc(Cl)cc(Nc2ccnc(Nc3cc(Cl)cc(Cl)c3)n2)c1", "CAMKK2", "%", 0],
  ["Cn1ccc2ncnc(Oc3ccc(NC(=O)Nc4ccccc4)cc3)c21", "CAMKK2", "%", 0],
  ["Cc1cccc(-c2nc(Nc3cccc(C(N)=O)c3)c3ccccc3n2)n1", "CAMKK2", "%", 0],
  ["Cn1ccc2ncnc(Oc3ccc(Nc4nc5ccccc5[nH]4)cc3)c21", "CAMKK2", "%", 22],
  ["NC(=O)c1nnc2ccccc2c1N", "CAMKK2", "%", 0],
  ["CCn1c(-c2ccccn2)nc2cnccc21", "CAMKK2", "%", 0]
]}

---

System: LIMK1
condition set: concentration: 1 μM, replicates: in singlicate; n = 1
Reported %Inh values for a set of molecules

{"columns": ["molecule", "result units", "%Inh"],
 "data": [
  ["CCn1c(-c2cccnc2O)nc2cnccc21", "%", 0],
  ["Fc1cc(Cl)ccc1Nc1ccnc2cc(I)ccc12", "%", 0],
  ["Clc1cc(Cl)cc(Nc2ccnc(Nc3cc(Cl)cc(Cl)c3)n2)c1", "%", 10],
  ["O=S(=O)(c1ccc(-c2ccnc3[nH]ccc23)cc1)N1CCCC1", "%", 7],
  ["CN1C(=O)C(Nc2ccc(Cl)c(C(=O)O)c2)=C(c2ccc(Cl)cc2)C1=O", "%", 7],
  ["O=C(Nc1n[nH]c2nc(-c3nccs3)c(Br)cc12)C1CC1", "%", 0],
  ["Cc1c(Cn2ccn3c(=O)cc(N4CCOCC4)nc23)cccc1C(F)(F)F", "%", 0],
  ["Nc1nc(-c2nccs2)c(-c2ccnc3ccccc23)s1", "%", 6],
  ["O=C(Nc1n[nH]c2nc(-c3nccs3)c(Br)cc12)C1CCCC1", "%", 19],
  ["CS(=O)(=O)c1ccc(-c2nc3n(c2-c2ccncc2)CCC3)cc1", "%", 19],
  ["Cn1cncc1-c1ccc2ncnc(Nc3ccc(OCc4ccccc4)cc3)c2c1", "%", 18],
  ["COc1ccc(Nc2nccc(-c3cccc(NC(=O)c4cc5cc(F)ccc5[nH]4)c3)n2)cc1", "%", 0],
  ["C[C@@H]1CCCCN1c1cc(-c2ccc3c(N)n[nH]c3c2)nc(N)n1", "%", 0],
  ["O=C(Nc1ccc2c(c1)OCO2)NC1CCN(c2ccnc(Nc3ccc(F)cc3)n2)C1 (stereo not shown)", "%", 41],
  ["COc1ccccc1-c1ccc2c(NC(=O)C3CC3)n[nH]c2n1", "%", 0],
  ["COc1ccc(Nc2nccc(NCCNC(=O)Nc3ccccc3F)n2)cc1", "%", 4]
]}
